- target entity: T1, RBFOX1 RRM RbFoxmut (Fox-RRM*) (Homo sapiens, UniProt Q9NWB1 109-208, R118D;E147R;N151S;E152T)
- T1 sequence: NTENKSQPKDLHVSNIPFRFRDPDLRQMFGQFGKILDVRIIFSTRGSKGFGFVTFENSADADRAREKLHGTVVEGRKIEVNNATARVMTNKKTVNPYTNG
- experimental details: EMSA; HiTS-Eq, 1 nM pool, 10 min; buffer printed only for the single-RNA assays: 10 mM Tris pH 7.5, 150 mM NaCl, 3.4 mM EDTA, 0.001% NP-40, 30 C
- conditions: tags: His6 N-terminal (pET28a); label: 5' 32P
In all, about 16,000 sequences were measured (“ka relative to ugcaugu”: median about 0.096, highest 2% from about 0.35 on). This is one part of a sample in which the highest values are shown more often than they occur.
measured property: binding signal

{"binder": "UGAUGUG (DNA:RNA) RNA: GGGAGACCGGAAUUCAGAUUGUCCUGAUGUGUUAAAUCCCGUCGUAGCCACCA DNA 1: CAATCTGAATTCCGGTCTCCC DNA 2: TGGTGGCTACGACGGGATT", "binding signal": "0.184 KA relative to UGCAUGU"}
{"binder": "UGAGAUG (DNA:RNA) RNA: GGGAGACCGGAAUUCAGAUUGUCCUGAGAUGUUAAAUCCCGUCGUAGCCACCA DNA 1: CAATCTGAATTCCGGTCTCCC DNA 2: TGGTGGCTACGACGGGATT", "binding signal": "0.429 KA relative to UGCAUGU"}
{"binder": "GCAAUGG (DNA:RNA) RNA: GGGAGACCGGAAUUCAGAUUGUCCGCAAUGGUUAAAUCCCGUCGUAGCCACCA DNA 1: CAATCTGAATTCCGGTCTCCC DNA 2: TGGTGGCTACGACGGGATT", "binding signal": "0.0714 KA relative to UGCAUGU"}

// next item, binding signal requested
Query :: Need binding signal of AAUCGAA (DNA:RNA) RNA: GGGAGACCGGAAUUCAGAUUGUCCAAUCGAAUUAAAUCCCGUCGUAGCCACCA DNA 1: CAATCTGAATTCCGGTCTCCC DNA 2: TGGTGGCTACGACGGGATT , thanks.
Result :: 0.081 KA relative to UGCAUGU
